Target: MAGL (Homo sapiens)
Sequence (Q99685 1-303): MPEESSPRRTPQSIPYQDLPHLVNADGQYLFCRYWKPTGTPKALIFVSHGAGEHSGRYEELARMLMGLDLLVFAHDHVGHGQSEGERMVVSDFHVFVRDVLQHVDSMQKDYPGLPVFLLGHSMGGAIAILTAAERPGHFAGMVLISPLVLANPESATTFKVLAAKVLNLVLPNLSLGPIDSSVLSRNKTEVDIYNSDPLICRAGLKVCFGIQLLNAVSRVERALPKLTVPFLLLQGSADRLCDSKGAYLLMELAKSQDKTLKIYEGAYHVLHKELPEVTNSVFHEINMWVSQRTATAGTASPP
ASSAY_ENDPOINT: IC50 (nM)
Express the result in nM but write the number alone.

Please review the entries below; each comes with its answer.
Test system MAGL (Homo sapiens); read-out IC50; what value for O=C1CO[C@H]2CCN(C(=O)N3CC(CNC(c4ccc(Cl)cc4Cl)C(F)(F)F)C3)C[C@H]2N1 (stereo partly shown) ?
8

Test system MAGL (Homo sapiens); read-out IC50; what value for `O=C1CO[C@H]2CCN(C(=O)N3CCC(C#Cc4cnccc4Cl)CC3)C[C@H]2N1` ?
306

Test system MAGL (Homo sapiens); read-out IC50; what value for CN(c1ccc(C(F)(F)F)cc1)C1CCN(C(=O)N2CC[C@@H]3OCC(=O)N[C@@H]3C2)CC1 (racemic) ?
22

Now take the following compound into account.
Test system MAGL (Homo sapiens); read-out IC50; what value for `CC1(C#Cc2ccc(Cl)cc2Cl)CCN(C(=O)N2CC[C@@H]3OCC(=O)N[C@@H]3C2)CC1` ?
92

###

This listing pairs compounds with measured IC50.
Target: MAGL (recombinant wild-type) (Homo sapiens)
Sequence (Q99685 1-303): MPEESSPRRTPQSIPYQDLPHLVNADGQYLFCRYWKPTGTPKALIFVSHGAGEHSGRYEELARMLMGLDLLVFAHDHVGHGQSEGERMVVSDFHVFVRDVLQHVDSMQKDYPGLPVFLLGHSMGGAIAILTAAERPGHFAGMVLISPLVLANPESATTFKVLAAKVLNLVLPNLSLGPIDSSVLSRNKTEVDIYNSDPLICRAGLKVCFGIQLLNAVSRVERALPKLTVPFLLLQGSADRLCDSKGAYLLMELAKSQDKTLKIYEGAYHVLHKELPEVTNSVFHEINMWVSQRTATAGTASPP
Assay: 4-NPA assay: MAGL inhibition followed by hydrolysis of 4-nitrophenylacetate, absorbance at 405 nm
Conditions: measured in 4-NPA assay (footnote [b]); 1 nM MAGL, 300 μM 4-nitrophenylacetate
Express the result in µM but write the number alone.

// query IC50 value for entry CN(C(=O)c1ccc(C(F)(F)F)cc1)C1CCN(C(=O)N2CC[C@@H]3OCC(=O)N[C@@H]3C2)CC1 [Example 85]
1.99

// query IC50 value for entry O=C1CO[C@H]2CCN(C(=O)N3CCC(C(=O)N(CCO)Cc4ccccc4)CC3)C[C@H]2N1 [Example 63]
4.4

// query IC50 value for entry CN(C(=O)Cc1cccc(C(F)(F)F)c1)C1CCN(C(=O)N2CC[C@@H]3OCC(=O)N[C@@H]3C2)CC1 [Example 86]
0.519

// query IC50 value for entry O=C1CO[C@H]2CCN(C(=O)N3CCC(C(=O)NCc4ccccc4)CC3)C[C@H]2N1 [Example 65]
2.9

###

This listing pairs compounds with measured pIC50.
Target sequence: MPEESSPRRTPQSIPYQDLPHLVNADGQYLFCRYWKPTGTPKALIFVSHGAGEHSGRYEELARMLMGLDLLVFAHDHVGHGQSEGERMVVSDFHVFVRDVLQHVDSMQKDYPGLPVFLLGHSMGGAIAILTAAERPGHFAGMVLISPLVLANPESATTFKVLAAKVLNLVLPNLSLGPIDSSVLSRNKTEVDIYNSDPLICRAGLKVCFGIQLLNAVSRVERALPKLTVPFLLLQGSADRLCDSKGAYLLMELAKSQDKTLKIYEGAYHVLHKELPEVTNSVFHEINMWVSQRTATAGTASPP
Scale note: pIC50 = -log10(concentration in M).

Please review the entries below; each comes with its answer.
// query pIC50 value for entry O=C1CO[C@H]2CCN(C(=O)N3CC(CNC(c4ccc(C(F)(F)F)cc4)C(F)(F)F)C3)C[C@H]2N1 (stereo partly shown) [Example 41]
7.62

// query pIC50 value for entry O=C1CO[C@H]2CCN(C(=O)N3CC(C#Cc4ccc(C5(O)CC5)cc4)C3)C[C@H]2N1 [Example 180]
7.42

// query pIC50 value for entry O=C1CO[C@H]2CCN(C(=O)N3CC(C#Cc4ccccc4OC(F)(F)F)C3)C[C@H]2N1 [Example 170]
8.40

// query pIC50 value for entry O=C1CO[C@H]2CCN(C(=O)N3CC(C#CC4(O)CCCC4)C3)C[C@H]2N1 [Example 198]
6.29

// query pIC50 value for entry COc1cccc(C#CC2CN(C(=O)N3CC[C@@H]4OCC(=O)N[C@@H]4C3)C2)c1 [Example 181]
7.89

// query pIC50 value for entry O=C1CO[C@H]2CCN(C(=O)N3CC(C#Cc4csc(Cl)c4)C3)C[C@H]2N1 [Example 188]
7.89

Further cases:
// query pIC50 value for entry O=C1CO[C@H]2CCN(C(=O)N3CC(C#Cc4ccccc4C(F)F)C3)C[C@H]2N1 [Example 182]
7.85

###

Protein target, amino acids: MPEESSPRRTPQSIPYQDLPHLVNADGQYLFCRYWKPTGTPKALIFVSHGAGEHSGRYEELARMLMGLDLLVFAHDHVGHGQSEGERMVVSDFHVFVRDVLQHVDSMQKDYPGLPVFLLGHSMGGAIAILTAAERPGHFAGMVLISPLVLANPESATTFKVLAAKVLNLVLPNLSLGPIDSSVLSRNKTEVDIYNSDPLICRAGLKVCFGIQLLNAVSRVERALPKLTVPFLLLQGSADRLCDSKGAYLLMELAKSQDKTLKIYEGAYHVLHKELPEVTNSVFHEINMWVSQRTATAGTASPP
This listing pairs compounds with measured pIC50.
Scale note: pIC50 = -log10(concentration in M).

Please review the entries below; each comes with its answer.
// query pIC50 value for entry `O=C1CO[C@H]2CCN(C(=O)N3CCC(C#Cc4cccc(Cl)c4)CC3)C[C@H]2N1`
6.99

// query pIC50 value for entry `Cc1c(F)cccc1C#CC1CN(C(=O)N2CC[C@@H]3OCC(=O)N[C@@H]3C2)C1`
8.22

// query pIC50 value for entry `O=C1CO[C@H]2CCN(C(=O)N3CC(C#Cc4ccc(F)cc4Cl)C3)C[C@H]2N1`
7.89

// query pIC50 value for entry `O=C1CO[C@H]2CCN(C(=O)N3CCC(C#Cc4ccc(Cl)cc4)CC3)C[C@H]2N1`
7.09

Now take the following compound into account.
// query pIC50 value for entry `O=C1CO[C@H]2CCN(C(=O)N3CC(C#CC4=CCCC4)C3)C[C@H]2N1`
6.97

Data origin, for the record: patent US20210277020A1
